# Test system: SK-GT2 cells
# TEST DESCRIPTION: FDA library drug sensitivity testing (CellTiter-Glo, 72 h)
# Type: cell-based, human
# EXPERIMENTAL PARAMETERS: SK-GT2; sDSSmod = DSSmod (patient cells) - DSSmod (normal cells)
# Method: OE33, OE19 and SKGT2 human esophageal adenocarcinoma cell lines were obtained from the European Collection of Cell Culture ([…]). Flo1, EAC42 and EAC47 cells were established in the Capobianco Laboratory. […] Drug sensitivity testing (DST) was performed as described previously. […] After 72 hours of treatment, cell viability was assessed by measuring ATP levels via bioluminescence (CellTiter-Glo, Promega) according to manufactures recommendations. […]
Where a name gives a salt, the structure may show the parent alone.
Each entry gets class 0 if its sDSSmod stays under 7, and class 1 if its sDSSmod is 7 or above.

COc1cccc2c1C(=O)c1c(O)c3c(c(O)c1C2=O)C[C@@](O)(C(=O)CO)C[C@@H]3O[C@H]1C[C@H](N)[C@H](O)[C@H](C)O1 [Doxorubicin]    class 0
COc1cccc2c1C(=O)c1c(O)c3c(c(O)c1C2=O)C[C@@](O)(C(=O)CO)C[C@@H]3O[C@H]1C[C@H](N)[C@@H](O)[C@H](C)O1 [Epirubicin Hydrochloride]    class 0
CC(=O)O[C@@]12CO[C@@H]1C[C@H](O)[C@@]1(C)C(=O)[C@H](O)C3=C(C)[C@@H](OC(=O)[C@H](O)[C@@H](NC(=O)OC(C)(C)C)c4ccccc4)C[C@@](O)([C@@H](OC(=O)c4ccccc4)[C@H]21)C3(C)C [Docetaxel]    class 1
O=S(=O)(O)CCS [Mesna]    class 1
O=C(/C=C/c1cccc(S(=O)(=O)Nc2ccccc2)c1)NO [Belinostat]    class 0

Shift focus to the following entry.
stdin: Test whether the compound Nc1nc(F)nc2c1ncn2[C@@H]1O[C@H](CO)[C@@H](O)[C@@H]1O [Fludarabine] records sDSSmod of 7 or higher.
stdout: class 0
